molecular target: Carbonic anhydrase 2 (Homo sapiens) (UniProt P00918); assay: CAII small-molecule binders, profiling panel, biochemical, small-molecule microarray, Alexa647-labelled CAII (AID 1122); settings: CAII-A647 binding fluorescence, higher = more signal
measured-endpoint: composite z-score
No unit in the answer, please; the number alone is enough.

Inquiry: Provide value of composite z-score for this record tested with Carbonic anhydrase 2 (Homo sapiens) (UniProt P00918): COCCOC(=O)N1C(=O)[C@@]2(c3cc(C#CCCO)ccc31)[C@H](C(=O)N1CCCCCCC1)[C@H]1C(=O)O[C@H](c3ccccc3)[C@H](c3ccccc3)N1[C@@H]2c1ccc(O)cc1
Reply text: 0.731

Inquiry: Provide value of composite z-score for this record tested with Carbonic anhydrase 2 (Homo sapiens) (UniProt P00918): C=C(CCCC)C(=O)CC[C@@H](OC(=O)c1cccnc1)c1cccc(OCCO)c1
Reply text: 0.15

Inquiry: Provide value of composite z-score for this record tested with Carbonic anhydrase 2 (Homo sapiens) (UniProt P00918): Cc1cc(C)c(C(O)C2C=CC3C(=O)N(C)C(=O)C3N2N2CCCCC2)c(C)c1 (stereo not given)
Reply text: 0.74

Inquiry: Provide value of composite z-score for this record tested with Carbonic anhydrase 2 (Homo sapiens) (UniProt P00918): C=C(CCCC)/C(=C/C[C@@H](OC(=O)c1ccncc1)c1ccc(CO)o1)c1cnc2ccccc2c1
Reply text: 0.956

Inquiry: Provide value of composite z-score for this record tested with Carbonic anhydrase 2 (Homo sapiens) (UniProt P00918): C=C(CCCC)C(=O)CC[C@@H](OC(C)=O)c1ccccc1OCCO
Reply text: 0.638

Inquiry: Provide value of composite z-score for this record tested with Carbonic anhydrase 2 (Homo sapiens) (UniProt P00918): CN1CCC(CCCO)=CC1C1CC1 (stereo not given)
Reply text: 0.299

Inquiry: Provide value of composite z-score for this record tested with Carbonic anhydrase 2 (Homo sapiens) (UniProt P00918): CCN1C(C)=C(C(=O)OC)[C@@H](c2ccccc2)N2C(=O)[C@@]3(C(=O)OC)O[C@@]12[C@@H]1C(=O)N(C)C(=O)[C@@H]13
Reply text: 0.752

Inquiry: Provide value of composite z-score for this record tested with Carbonic anhydrase 2 (Homo sapiens) (UniProt P00918): CCCC=C(CCC)[C@@H](NS(=O)(=O)c1cccc(C(F)(F)F)c1)c1ccc(C(=O)OC)cc1
Reply text: 0.169

Inquiry: Provide value of composite z-score for this record tested with Carbonic anhydrase 2 (Homo sapiens) (UniProt P00918): C=C(COC)/C(=C/C[C@@H](OC(=O)c1ccncc1)c1ccc(OCCO)cc1)c1cc(C(=O)OC)ccc1OC
Reply text: 0.655

Inquiry: Provide value of composite z-score for this record tested with Carbonic anhydrase 2 (Homo sapiens) (UniProt P00918): COCCOC(=O)N1C(=O)[C@@]2(c3cc(C#CCC(C(=O)OC)C(=O)OC)ccc31)[C@H](C(=O)N1CCN(c3ncccn3)CC1)[C@H]1C(=O)O[C@H](c3ccccc3)[C@H](c3ccccc3)N1[C@@H]2c1ccc(O)cc1
Reply text: 0.55

----------
test: mitochondrial membrane potential change in A549 cells, profiling panel, cell-based, JC-1 fluorescence, basal, 24 h, 100 nL (AID 1138); details: higher = more signal;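 also: A549 lung adenocarcinoma cells under basal conditions with no added stimulus; test concentration not given here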
Output: class label from z-score. Mapping: A: < -0.3; B: ≥ -0.3 and < 2; C: ≥ 2

Take a look at these entries with their results.
Inquiry: Category of C=C(COC)/C(=C/C[C@@H](OC(=O)c1ccncc1)c1ccc(OCCO)cc1)c1cc(C(=O)OC)ccc1OC :
Reply text: C

Inquiry: Category of O=C1c2ccccc2[C@](Cc2ccccc2I)(C(=O)NCC(F)(F)F)[C@H](c2ccc(CO)cc2)N1Cc1ccccc1C(F)(F)F :
Reply text: B

Inquiry: Category of C#CCNC(/C=C/c1ccccc1)CO (centres undefined) :
Reply text: A

Inquiry: Category of COc1ccc([Si](C)(C)[C@H]2[C@H](CC(=O)N(CCO)Cc3ccccc3)O[C@@]3(C(=O)N(C)c4ccccc43)[C@@H]2C)cc1 :
Reply text: B

# next compound below
Inquiry: Category of C[C@@H]1NC(=O)CC=C[C@@H](C)[C@@H]2C=C[C@H](O)[C@@H](COC(=O)[C@H](C)NC(=O)CC=C[C@@H](C)[C@@H]3C=C[C@H](O)[C@@H](COC1=O)O3)O2 :
Reply text: B

----------
system: Lefty1; experiment: Lefty1 binders on small-molecule microarrays, primary screen, biochemical, small-molecule microarray, 635/667 nm fluorescence (AID 1139); conditions: small-molecule microarray binding, fluorescence 635/667; higher = more signal
As shown below, each of these molecules has a reported composite z-score value.
No unit in the answer, please; the number alone is enough.

Inquiry: So what's the measured composite z-score for this one? CN1C(=O)C2C=CC(C(O)C3CC=CCC3)N(Nc3ccccc3)C2C1=O (stereo not drawn)
Reply text: 1.29

Inquiry: So what's the measured composite z-score for this one? COC(=O)[C@@]1(Cc2ccc(OC)cc2)[C@H]2c3cc(C(=O)N(C)C)n(CCc4ccc(OC)c(Br)c4)c3C[C@H]2CN1C(=O)c1ccccc1
Reply text: -0.545

Inquiry: So what's the measured composite z-score for this one? CCCCCCc1nc(C2CC2)c(C)c2c1[Si](C(C)C)(C(C)C)OC2
Reply text: -0.238

Inquiry: So what's the measured composite z-score for this one? CCC(=O)[C@]12O[C@@]3([C@@H]4C(=O)OCC[C@@H]41)N(Cc1ccccc1)C(C)=C(C(=O)OC)[C@@H](c1ccccc1)N3C2=O
Reply text: 0.197

Inquiry: So what's the measured composite z-score for this one? C[C@@H]1NC(=O)CC=C[C@@H](C)[C@@H]2C=C[C@H](O)[C@@H](COC(=O)[C@H](C)NC(=O)CC=C[C@@H](C)[C@@H]3C=C[C@H](O)[C@@H](COC1=O)O3)O2
Reply text: 1.41

***
Inquiry: So what's the measured composite z-score for this one? O=C1OCCC=C[C@H]2OC34C=CCN(Cc5ccccc5)C(=O)[C@H]3N(CCO)C(=O)[C@@H]4C12 (stereo partly drawn)
Reply text: -0.705

Inquiry: So what's the measured composite z-score for this one? COC(=O)[C@H]1[C@@H]2COc3ccccc3[C@H]2N[C@H]1C(=O)OC
Reply text: 0.171

Inquiry: So what's the measured composite z-score for this one? O=C1c2ccccc2[C@@]2(Cc3ccccc3N(CC(F)(F)F)C2=O)[C@H](c2ccc(CO)cc2)N1C1CCCCC1
Reply text: 0.531

----------
test: mitochondrial membrane potential change in A549 cells, profiling panel, cell-based, JC-1 fluorescence, basal, 24 h, 100 nL (AID 1138); details: higher = more signal;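 also: A549 lung adenocarcinoma cells under basal conditions with no added stimulus; test concentration not given here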
measured-endpoint: z-score
No unit in the answer, please; the number alone is enough.

Observe how each entry below is paired with its result.
Inquiry: So what's the measured z-score for this one? CC(C)CN1C(=O)[C@@]2(Cc3ccccc31)c1ccccc1C(=O)N(C1CCCCC1)[C@H]2c1ccc(CO)cc1
Reply text: -0.269

Inquiry: So what's the measured z-score for this one? COC(=O)Cn1c(C(=O)N2CCCC2)cc2c1C[C@H]1CN(C(=O)c3ccccc3)[C@@](Cc3ccccc3)(C(=O)OC)[C@@H]21
Reply text: 0.367

Inquiry: So what's the measured z-score for this one? COc1cc2c(cc1OC)CN(C(=O)[C@H]1[C@@H]3C(=O)O[C@@H](c4ccccc4)[C@@H](c4ccccc4)N3[C@@H](c3ccccc3OCCO)[C@]13C(=O)Nc1ccc(C#CC4(O)CCCCCC4)cc13)CC2
Reply text: -0.627

Turning to the following molecule.
Inquiry: So what's the measured z-score for this one? CC(C)N1CC=CC23O[C@@H]4/C=C\CCCOC(=O)C4[C@H]2C(=O)N(CCCCCO)[C@@H]3C1=O (some centres undefined)
Reply text: 3.68
